Origin of measurements: PubChem BioAssay (NCI)

Recorded TGI, one value per entry.
- System: CAKI-1 renal
- protocol_notes: NCI tumour cell line growth inhibition, 48 h
Entry rule: numbers only, all in µM.

Check out these entries, answers already filled in.
CCc1cccc(C)c1NC(=O)CC1C(=O)Nc2ccccc2S1(=O)=O (stereo not given) | 31.2
Oc1ccc(Cc2cc(Cl)cc(Cl)c2O)cc1Cl | 51.5

As a next step, examine the molecule that follows.
Query (molecule): COC(=O)c1c(O)ccc2c1c1c(n2Cc2ccccc2)C(=O)c2ccccc2C1 ; field requested: TGI
87.2

----------
- Test system: RXF 393 renal
- protocol_notes: NCI tumour cell line growth inhibition, 48 h
Recorded GI50, one value per entry.

CC1=NN(c2nc(N)nc(/C=C\c3ccc([N+](=O)[O-])s3)n2)C(C)(C)C1 | > 100000 nM
O=C(c1ccccc1)c1c(C(F)(F)F)n([O-])c2ccc(C(F)(F)F)cc2[n+]1=O | 175 nM
C[C@@H]1COCCN1c1cc(C2(O)C[C@H]3CC[C@@H](C2)O3)c2cnn(-c3ccn[nH]3)c2n1 (stereo not given in full) | < 16.1 nM
COc1cc(-c2csc(NC(=O)Nc3cc(Cl)cc(Cl)c3)n2)cc(OC)c1OC | 1730 nM

So what GI50 did O=C(/C=C\c1cccc2ccccc12)c1cccc2ccccc12 get with RXF 393 renal?
7460 nM

----------
- System: K-562 leukemia
- protocol_notes: NCI tumour cell line growth inhibition, 48 h; in the data active means GI50 below about 0.43 µM; inactive means the rest
API: response.call in yes = active, no = inactive

Please review the entries below; each comes with its answer.
COc1ccc(-c2nn(-c3ccc(NC(=O)Nc4ccc(Cl)c(C(F)(F)F)c4)cc3)cc2-c2ccncc2)cc1Cl | no
C=C1C(=O)O[C@H]2[C@H]1CC/C(COC(=O)NCc1ccc(Cn3c(=O)sn(-c4ccccc4)c3=O)cc1)=C\CC[C@@]1(C)O[C@@H]21 | no

Please indicate how the test categorized Cc1cccc(Cc2cnc(NC(=O)CCc3ccc(C)o3)s2)c1 .
yes

Please indicate how the test categorized CC(=O)c1cc(O)c2ccccc2c1O .
no

Please indicate how the test categorized O=C(c1ccccc1)c1c(C(F)(F)F)n([O-])c2ccc(C(F)(F)F)cc2[n+]1=O .
yes

Please indicate how the test categorized COc1c(B(O)O)cc(F)cc1-c1nc2ccc3[nH]ncc3c2c2c1CCCC2 .
no

Please indicate how the test categorized O=c1oc2c(C(F)(F)F)cccc2cc1-c1csc(Nc2ccc(OCCF)cc2)n1 .
yes

Please indicate how the test categorized CC(=O)[O-].O=C([CH-]C(=O)c1ccccc1)c1ccccc1.O=C([CH-]C(=O)c1ccccc1)c1ccccc1.[Sm+3] .
no

Please indicate how the test categorized O=C(CCc1ccc(O)cc1)N/N=C/c1cc(Br)ccc1O .
no

Please indicate how the test categorized O=C1OCC2=C1C(c1ccccc1)c1cc3c(cc1N2CCO)OCCO3 (stereo unspecified) .
yes

Please indicate how the test categorized CC(=O)[CH-]C(C)=O.CC(=O)[CH-]C(C)=O.CC[O-].CC[O-].[Ti+4] .
no

Please indicate how the test categorized Nc1ncc(-c2cccc(S(N)(=O)=O)c2)c2scc(-c3ccc(F)c(Cl)c3)c12 .
no

----------
Recorded TGI, one value per entry.
- Tested on: UACC-62 melanoma
- protocol_notes: NCI tumour cell line growth inhibition, 48 h

Check out these entries, answers already filled in.
C=C(C)CNC(=S)N(N)c1ccc2ccccc2c1 | 76.8 µM
O=c1ccc2ccc(O)cc2o1 | > 100 µM
COC(=O)C(C)NC(=O)c1ccccc1I(OS(=O)(=O)C(F)(F)F)c1ccccc1 (configuration not stated) | 35 µM
CC1=C(C)C(=O)C(C2=CC(=O)C=CC2=O)=C(C2=CC(=O)C=CC2=O)C1=O | > 100 µM
CCN(CC)c1ccc(/C=C/C=C2\NC(=O)NC2=O)cc1 | > 100 µM

So what TGI did CN1CCN(C2=CC(=O)c3c(O)ccc(O)c3C2=O)CC1 get with UACC-62 melanoma?
3.13 µM

So what TGI did COc1ccccc1C(=O)N(C)c1ccc(Cl)c(C(=O)OC(C)C)c1 get with UACC-62 melanoma?
> 100 µM

So what TGI did O=C(NC(=S)Nc1cc(Cl)ccc1O)c1cccc(Br)c1 get with UACC-62 melanoma?
> 100 µM
